test: Solubility test of anthracene derivatives in solvents
Type: physicochemical
condition-set: solubility test at 10 g/L, six solvents
measure: solubility in a solvent (summary in words)

compound	val
c1ccc(-c2c3ccccc3c(-c3ccc(-n4c5ccccc5c5cc(-c6ccc7c(c6)c6ccccc6n7-c6ccccc6)ccc54)cc3)c3ccccc23)cc1 [Sample 1-3, reference compound]	low solubility
CC(C)(C)c1ccc2c(-c3ccc(-c4ccc5c(c4)c4ccccc4n5-c4ccccc4)cc3)c3ccccc3c(-c3ccc(-c4ccc5c(c4)c4ccccc4n5-c4ccccc4)cc3)c2c1 [Sample 1-4, reference compound]	low solubility
c1ccc2c(-c3ccc(-n4c5ccccc5c5ccccc54)cc3)c3ccccc3c(-c3ccc(-n4c5ccccc5c5ccccc54)cc3)c2c1 [Sample 1-2, reference compound]	low solubility

* * *

test: Solubility test of anthracene derivatives in solvents
Assay type: physicochemical
condition-set: organic solvent or mixture, thermodynamic from solid; 0.01 g in 1 mL anisole (10 g/L), ultrasonic waves 10 minutes; read-out: Solubility Test, Solvent Anisole
measure: solubility at 10 min

molecule	val
c1ccc(-c2c3ccccc3c(-c3cccc(-n4c5ccccc5c5ccccc54)c3)c3ccccc23)cc1	> 10000 µg/mL
c1ccc2cc(-c3c4ccccc4c(-c4ccc(-n5c6ccccc6c6ccccc65)cc4)c4ccccc34)ccc2c1	> 10000 µg/mL
c1ccc(-c2c3ccccc3c(-c3ccccc3)c3cc(-c4ccc5c(c4)c4ccccc4n5-c4ccccc4)ccc23)cc1	> 10000 µg/mL
c1ccc(-c2c3ccccc3c(-c3ccccc3)c3ccccc23)cc1 [Sample 1-1, 9,10-diphenylanthracene, reference compound]	> 10000 µg/mL

Request: Endpoint output: solubility at 10 min of c1ccc(-c2c3ccccc3c(-c3ccc(-n4c5ccccc5c5cc(-c6ccc7c(c6)c6ccccc6n7-c6ccccc6)ccc54)cc3)c3ccccc23)cc1 [Sample 1-3, reference compound] . Value?
Result: < 10000 µg/mL

Request: And c1ccc2c(-c3ccc(-n4c5ccccc5c5ccccc54)cc3)c3ccccc3c(-c3ccc(-n4c5ccccc5c5ccccc54)cc3)c2c1 [Sample 1-2, reference compound] ?
Result: < 10000 µg/mL

Request: And `c1ccc(-c2c3ccccc3c(-c3ccccc3)c3cc(-c4ccc(-n5c6ccccc6c6ccccc65)cc4)ccc23)cc1` ?
Result: > 10000 µg/mL

Request: And `c1ccc(-c2c3ccccc3c(-c3ccccc3)c3cc(-n4c5ccccc5c5ccccc54)ccc23)cc1` ?
Result: > 10000 µg/mL

Request: And `c1ccc(-c2c3ccccc3c(-c3ccc(-c4ccc5c(c4)c4ccccc4n5-c4ccccc4)cc3)c3ccccc23)cc1` ?
Result: > 10000 µg/mL

* * *

test: Solubility test of anthracene derivatives in solvents
Type: physicochemical
condition-set: organic solvent or mixture, thermodynamic from solid; 0.01 g in 1 mL acetone (10 g/L), ultrasonic waves 10 minutes; read-out: Solubility Test, Solvent acetone
measure: solubility at 10 min

molecule	measure	val
c1ccc(-c2c3ccccc3c(-c3ccc(-n4c5ccccc5c5cc(-c6ccc7c(c6)c6ccccc6n7-c6ccccc6)ccc54)cc3)c3ccccc23)cc1 [Sample 1-3, reference compound]	solubility at 10 min	< 10000 µg/mL
c1ccc(-c2c3ccccc3c(-c3ccccc3)c3cc(-c4ccc5c(c4)c4ccccc4n5-c4ccccc4)ccc23)cc1 [Sample 1-13]	solubility at 10 min	> 10000 µg/mL

Attention now shifts to the item below.
Request: Endpoint output: solubility at 10 min of c1ccc2c(-c3ccc(-n4c5ccccc5c5ccccc54)cc3)c3ccccc3c(-c3ccc(-n4c5ccccc5c5ccccc54)cc3)c2c1 [Sample 1-2, reference compound] . Value?
Result: < 10000 µg/mL

* * *

Entries annotated with measured solubility at 10 min
test: Solubility test of anthracene derivatives in solvents
Format: physicochemical
condition-set: organic solvent or mixture, thermodynamic from solid; 0.01 g in 1 mL ethyl acetate (10 g/L), ultrasonic waves 10 minutes; read-out: Solubility Test, Solvent Ethyl acetate

Solved cases below.
> print(dat)
                                   compound            val
1  c1ccc(-c2c3ccccc3c(-c3ccccc3)c3cc(-n4c5ccccc5c5ccccc54)ccc23)cc1  > 10000 µg/mL
2  c1ccc(-c2c3ccccc3c(-c3ccccc3)c3cc(-c4ccc5c(c4)c4ccccc4n5-c4ccccc4)ccc23)cc1  > 10000 µg/mL
3  c1ccc2c(-c3ccc(-n4c5ccccc5c5ccccc54)cc3)c3ccccc3c(-c3ccc(-n4c5ccccc5c5ccccc54)cc3)c2c1 [Sample 1-2, reference compound]  < 10000 µg/mL
4  c1ccc(-c2c3ccccc3c(-c3ccc(-c4ccc5c(c4)c4ccccc4n5-c4ccccc4)cc3)c3ccccc23)cc1  < 10000 µg/mL
5  c1ccc(-c2c3ccccc3c(-c3ccccc3)c3cc(-c4ccc(-n5c6ccccc6c6ccccc65)cc4)ccc23)cc1  < 10000 µg/mL

Attention now shifts to the item below.
Request: Endpoint output: solubility at 10 min of `c1ccc2cc(-c3c4ccccc4c(-c4ccc(-n5c6ccccc6c6ccccc65)cc4)c4ccccc34)ccc2c1` . Value?
Result: < 10000 µg/mL

* * *

test: Solubility test of anthracene derivatives in solvents
Type: physicochemical
condition-set: organic solvent or mixture, thermodynamic from solid; 0.01 g in 1 mL diethyl ether (10 g/L), ultrasonic waves 10 minutes; read-out: Solubility Test, Solvent Diethyl ether
measure: solubility at 10 min

Solved cases below.
> print(dat)
                                   molecule               measure            val
1  c1ccc(-c2c3ccccc3c(-c3ccccc3)c3cc(-n4c5ccccc5c5ccccc54)ccc23)cc1  solubility at 10 min  > 10000 µg/mL
2  c1ccc(-c2c3ccccc3c(-c3ccccc3)c3ccccc23)cc1 [Sample 1-1, 9,10-diphenylanthracene, reference compound]  solubility at 10 min  < 10000 µg/mL

Attention now shifts to the item below.
Request: Endpoint output: solubility at 10 min of `c1ccc(-c2c3ccccc3c(-c3cccc(-n4c5ccccc5c5ccccc54)c3)c3ccccc23)cc1` . Value?
Result: < 10000 µg/mL

* * *

test: Film quality test of spin-coated thin films
Format: physicochemical
Set-up: key: ◯: a circle is marked in the case of a transparent film where crystallization or white turbidity is not seen; X: a cross is marked in the case of a film where crystallization or white turbidity is seen
condition-set: 10 g/L in ethyl acetate, spin coated on glass substrate at 1000 rpm (60 seconds)
measure: Film Quality Test, Solvent Ethyl acetate

Solved cases below.
> print(dat)
                               smiles.input                                   measure  val
1  c1ccc(-c2c3ccccc3c(-c3ccc(-c4ccc5c(c4)c4ccccc4n5-c4ccccc4)cc3)c3ccccc23)cc1  Film Quality Test, Solvent Ethyl acetate    X
2  c1ccc(-c2c3ccccc3c(-c3ccccc3)c3cc(-c4ccc5c(c4)c4ccccc4n5-c4ccccc4)ccc23)cc1  Film Quality Test, Solvent Ethyl acetate    ◯
3  c1ccc(-c2c3ccccc3c(-c3ccccc3)c3cc(-n4c5ccccc5c5ccccc54)ccc23)cc1  Film Quality Test, Solvent Ethyl acetate    ◯
4  c1ccc2cc(-c3c4ccccc4c(-c4ccc(-n5c6ccccc6c6ccccc65)cc4)c4ccccc34)ccc2c1  Film Quality Test, Solvent Ethyl acetate    X
5  c1ccc(-c2ccccc2-c2c3ccccc3c(-c3ccccc3-c3ccccc3)c3cc(-n4c5ccccc5c5ccccc54)ccc23)cc1  Film Quality Test, Solvent Ethyl acetate    ◯

Request: Endpoint output: Film Quality Test, Solvent Ethyl acetate of `c1ccc(-c2c3ccccc3c(-c3cccc(-n4c5ccccc5c5ccccc54)c3)c3ccccc23)cc1` . Value?
Result: X

Request: And `CC(C)(C)c1ccc(-c2c3ccccc3c(-c3ccc(-n4c5ccccc5c5ccccc54)cc3)c3ccccc23)cc1` ?
Result: X

Request: And `c1ccc(-c2c3ccccc3c(-c3ccccc3)c3cc(-c4ccc(-n5c6ccccc6c6ccccc65)cc4)ccc23)cc1` ?
Result: X

* * *

Entries annotated with measured solubility at 10 min
test: Solubility test of anthracene derivatives in solvents
Type: physicochemical
condition-set: organic solvent or mixture, thermodynamic from solid; 0.01 g in 1 mL toluene (10 g/L), ultrasonic waves 10 minutes; read-out: Solubility Test, Solvent Toluene

Solved cases below.
molecule	solubility at 10 min
c1ccc(-c2c3ccccc3c(-c3ccc(-n4c5ccccc5c5cc(-c6ccc7c(c6)c6ccccc6n7-c6ccccc6)ccc54)cc3)c3ccccc23)cc1 [Sample 1-3, reference compound]	< 10000 µg/mL
c1ccc(-c2c3ccccc3c(-c3ccccc3)c3cc(-c4ccc(-n5c6ccccc6c6ccccc65)cc4)ccc23)cc1	> 10000 µg/mL
c1ccc(-c2c3ccccc3c(-c3ccccc3)c3cc(-n4c5ccccc5c5ccccc54)ccc23)cc1	> 10000 µg/mL

Request: Endpoint output: solubility at 10 min of `c1ccc2cc(-c3c4ccccc4c(-c4ccc(-n5c6ccccc6c6ccccc65)cc4)c4ccccc34)ccc2c1` . Value?
Result: > 10000 µg/mL

Request: And c1ccc(-c2c3ccccc3c(-c3ccccc3)c3ccccc23)cc1 [Sample 1-1, 9,10-diphenylanthracene, reference compound] ?
Result: > 10000 µg/mL

Request: And `c1ccc(-c2c3ccccc3c(-c3ccc(-c4ccc5c(c4)c4ccccc4n5-c4ccccc4)cc3)c3ccccc23)cc1` ?
Result: > 10000 µg/mL

Request: And c1ccc2c(-c3ccc(-n4c5ccccc5c5ccccc54)cc3)c3ccccc3c(-c3ccc(-n4c5ccccc5c5ccccc54)cc3)c2c1 [Sample 1-2, reference compound] ?
Result: < 10000 µg/mL

Request: And `c1ccc(-c2c3ccccc3c(-c3ccccc3)c3cc(-c4ccc5c(c4)c4ccccc4n5-c4ccccc4)ccc23)cc1` ?
Result: > 10000 µg/mL

Request: And `c1ccc(-c2c3ccccc3c(-c3cccc(-n4c5ccccc5c5ccccc54)c3)c3ccccc23)cc1` ?
Result: > 10000 µg/mL
